B1: LINE1-full (parent)
chain: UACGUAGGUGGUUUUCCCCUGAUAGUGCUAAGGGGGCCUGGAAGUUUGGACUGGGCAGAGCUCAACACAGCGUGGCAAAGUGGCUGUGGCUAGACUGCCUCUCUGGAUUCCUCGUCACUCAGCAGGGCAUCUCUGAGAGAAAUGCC

Variants of: B1
Experiment: self-cleavage, relative activity (ratio to wild type); higher = more cleavage; in vitro, sequencing; the parent is a self-cleaving ribozyme
Please mark label 1 if the recorded self-cleavage is equal to or greater than 1, and label 0 if it falls below.

Previously resolved entries follow.
UACGUAGGUGGUUUUCCCCUGAUAGUGCUAAGGGGGCCUGGAAGUUUGGACUGGGCAGAGCUCAACACAGCGUGGCAAAGUGGCUGUGGCUAGACUGCCUCUCUGGAUUCCACGUCACUCAGCAGGGCAUCUCUGAGAGUAAUGCC ... label 1
UACGUAGGUGGUUUUCCCCUGAUAGUGCUAAGGGGGCCUGGAAGUUUGGACUGGGCGGAGCUCAACACAGCGUGGCAAAGUGGCUGUGGCUAGACUGCCUCUCUGGAUUCCUCGUCACUCAGCAGGGCAUCUCCGAGAGAAAUGCC ... label 0
UACGUAGGUGGUUUUCCCCUGAUAGUGCUAAGGGGGCCUGGAAGUUUGGACUGGGCAGAGCUCAACACAGCGUGGCAAAGGGGCUGUGGCUAGACUGCCUCUCUGGAUUCCUCGUCACUCAGCAGGGCAUCUCUGAGAGGAAUGCC ... label 1
UACGUUGGUGGUUUUCCCCUGAUAGUGCUAAGGGGGCCUGGAAGUUUGGACUGGGCAGAGCUCAACACAGCGUGGCAAAGUGGCUGUGGCUAGACUGCCUCUCUGGAUUCCUCGUCACUCAGCAGAGCAUCUCUGAGAGAAAUGCC ... label 1
UGCGAAGGUGGUUUUCCCCUGAUAGUGCUAAGGGGGCCUGGAAGUUUGGACUGGGCAGAGCUCAACACAGCGUGGCAAAGUGGCUGUGGCUAGACUGCCUCUCUGGAUUCCUCGUCACUCAGCAGGGCAUCUCUGAGAGAAAUGCC ... label 0

Lab note: next variant to report on.
Exercise: For this variant, is measured self-cleavage 1 or higher? UACGUAGGAGGUUUUCCCCUGAUAGUGCUAAGGGGGCCUGGAAGUUUGGACUGGGCAGAGCUCAACACAGCGUGGCAAAGUGGCUGUGGCUAGACUGCCUCUCCGGAUUCCUCGUCACUCAGCAGGGCAUCUCUGAGAGAAAUGCC
Key: label 1
